subject_of_test: human BACE-1 (Homo sapiens)
Sequence (P56817 46-501): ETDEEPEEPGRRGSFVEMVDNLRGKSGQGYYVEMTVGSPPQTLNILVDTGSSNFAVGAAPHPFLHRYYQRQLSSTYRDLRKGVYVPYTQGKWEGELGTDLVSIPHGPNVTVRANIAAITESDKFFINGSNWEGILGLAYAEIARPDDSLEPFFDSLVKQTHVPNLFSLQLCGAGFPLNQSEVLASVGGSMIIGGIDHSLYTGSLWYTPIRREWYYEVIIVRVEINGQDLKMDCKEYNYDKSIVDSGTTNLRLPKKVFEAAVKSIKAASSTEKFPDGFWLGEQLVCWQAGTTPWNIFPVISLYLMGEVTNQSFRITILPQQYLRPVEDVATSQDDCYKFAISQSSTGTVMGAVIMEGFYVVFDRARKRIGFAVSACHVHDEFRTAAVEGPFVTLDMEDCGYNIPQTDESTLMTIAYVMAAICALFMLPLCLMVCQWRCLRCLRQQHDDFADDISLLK
method_summary: In Vitro BACE Assay run by CEREP (Example 14)
condition_set: recombinant enzyme, 60 min at 37° C., pH 4.5
pIC50: −log10 of the molar value.
measured_parameter: pIC50

The examples below pair each entry with its known result.
1) Nc1nc2ccc(Oc3ccccc3)cc2cc1C(CCC(=O)NCc1nnnn1Cc1ccccc1)C1CCOCC1 (centres unmarked) [compound 31]    6.13
2) CN(CC1CCCCC1)C(=O)CCC(c1cc2cc(Oc3ccccc3)ccc2nc1N)C1CCCCC1 (centres unmarked) [compound 40]    6.19
3) Nc1nc2ccc(Oc3ccccc3)cc2cc1C(CCC(=O)N(Cc1c[nH]cn1)C1CCCCC1)C1CCOCC1 (centres unmarked) [compound 53]    6.34
4) CC(C)(C)CN(Cc1ccccn1)C(=O)CCC(c1cc2cc(Oc3ccccc3)ccc2nc1N)C1CCOCC1 (centres unmarked) [compound 69]    6.17
5) CC(C)(C)OC[C@@H](NC(=O)CC[C@H](c1cc2cc(Oc3ccccc3)ccc2nc1N)C1CCCCC1)C(=O)N1CCOCC1 [compound 45]    5.96
6) Nc1nc2ccc(Oc3ccccc3)cc2cc1C(CCC(=O)NCC1CC1)C1CCOCC1 (centres unmarked) [compound 36]    6.21
7) Nc1nc2ccc(Oc3ccccc3)cc2cc1C(CCC(=O)N(CC1CC1)C1CCCCC1)C1CCOCC1 (centres unmarked) [compound 67]    6.39
8) Nc1nc2ccc(Oc3ccccc3)cc2cc1C(CCC(=O)N(Cc1ncc[nH]1)C1CCCCC1)C1CCOCC1 (centres unmarked) [compound 30]    6.39
9) Cn1ccnc1CN(C(=O)CCC(c1cc2cc(Oc3ccccc3)ccc2nc1N)C1CCOCC1)C1CCCCC1 (centres unmarked) [compound 54]    6.35
10) Nc1nc2ccc(Oc3ccccc3)cc2cc1C(CCC(=O)N(CCN1CCOCC1)C1CCCCC1)C1CCOCC1 (centres unmarked) [compound 65]    6.07

P: CC(C)(C)OCCN(C(=O)CCC(c1cc2cc(Oc3ccccc3)ccc2nc1N)C1CCOCC1)C1CCCCC1 (centres unmarked) [compound 66]
Q: Nc1nc2ccc(Oc3ccccc3)cc2cc1C(CCC(=O)N(CCO)C1CCCCC1)C1CCOCC1 (centres unmarked) [compound 50]
Enquiry: Which of these two has the smaller recorded pIC50: P or Q ? The response must carry the label of the picked entry.
Return: Q

P: CN(C(=O)CCC(c1cc2cc(Oc3ccccc3)ccc2nc1N)C1CCCCC1)C1CCCCC1 (centres unmarked) [compound 16]
Q: Nc1nc2ccc(Oc3ccccc3)cc2cc1C(CCC(=O)N(Cc1ccccn1)C1CCCCC1)C1CCOCC1 (centres unmarked) [compound 60]
Enquiry: Which of these two has the smaller recorded pIC50: P or Q ? The response must carry the label of the picked entry.
Return: P

---

subject_of_test: β-secretase (BACE) (Homo sapiens, UniProt P56817)
Construct: purchased Panvera
Sequence (P56817 46-501): as above
method_summary: In Vitro BACE FS1 % Inhibition Assay (Example 10)
Format: biochemical
condition_set: 0.3 μM compound; FS1 substrate; values below about 25% (including negative) within noise
measured_parameter: % Inhibition (Example 10) @ 0.3 μM (%)

The examples below pair each entry with its known result.
1. Nc1nc2ccc(Oc3ccccc3)cc2cc1CCC(=O)N1CCN(c2cccc(F)c2)CC1    28
2. COC(=O)CCCc1cc2cc(Oc3ccccc3)ccc2nc1N    21
3. COCCNC(=O)CCc1cc2cc(Oc3ccccc3)ccc2nc1N    22

1: Nc1nc2ccc(Oc3ccccc3)cc2cc1C(CCC(=O)NC12CC3CC(CC(C3)C1)C2)C1CCCCC1 (centres unmarked)
2: Nc1nc2ccc(Oc3ccccc3)cc2cc1C(CCC(=O)N[C@H]1CC[C@H](C(=O)O)CC1)C1CCCCC1 (some centres unmarked)
Enquiry: Which of these two has the smaller recorded % Inhibition (Example 10) @ 0.3 μM: 1 or 2 ? The response must carry the label of the picked entry.
Return: 2

Where these numbers come from: patent US7776882B2
